# System: 349418-098-R-PDC complex spheroid growth;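 note: spheroids also contain HUVEC endothelial cells and human MSC stroma; spheroids exposed to agents for seven days before luminescence viability read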
# test-summary: Anticancer human tumor 349418-098-R-PDC patient-derived lung adenocarcinoma cell line growth inhibition [AhR]; active = viability on the fitted dose curve at most 10% of control; inactive = the rest
# test-parameters: second compound 0.1 µM; first compound 0.1 µM
# Excerpt: Multicellular complex tumor spheroid response to aryl hydrocarbon receptor antagonists in combination with a variety of drugs and investigational agents in selected tumor cell lines […] Compounds. […] If the clinical Cmax for an agent had not been determined, the highest concentration tested was 10 microM (Table 1). […]
Possible outcomes: class 1 (active), class 0 (inactive)

CC[C@@]1(O)C(=O)OCc2c1cc1n(c2=O)Cc2cc3c(CN(C)C)c(O)ccc3nc2-1 + Cc1cncc(-c2nc(NCCc3c[nH]c4ccccc34)c3ncn(C(C)C)c3n2)c1 :: class 1
Nc1ncn(C2CC(O)C(CO)O2)c(=O)n1 (stereo not drawn) + Cc1cncc(-c2nc(NCCc3c[nH]c4ccccc34)c3ncn(C(C)C)c3n2)c1 :: class 0
Nc1ccccc1NC(=O)c1ccc(CNC(=O)OCc2cccnc2)cc1 + Cc1cncc(-c2nc(NCCc3c[nH]c4ccccc34)c3ncn(C(C)C)c3n2)c1 :: class 0
